// reported RP-HPLC retention times for each item listed
assay: RP-HPLC retention time on C18 column (hydrophobicity); format: physicochemical; conditions: analytical RP-HPLC, C18, sunfire column 3.9 mm × 150 mm, Waters; used as measure of hydrophobicity
State the answer as a number, implicitly in min.

Examples with answers:
(Q) Which RP-HPLC retention times is reported for this substance? AGYLLGHMINLHMHMLAHML(Aib)HMHMIL-NH2 [Methyl-TH, TH analog with all histidines replaced by L-his(Methyl)]
(A) 18.058

(Q) Which RP-HPLC retention times is reported for this substance? AGYLLGHEINLHEHELAHEL(Aib)HEHEIL-NH2 [Ethyl-TH, TH analog with all histidines replaced by L-his(Ethyl)]
(A) 18.623

(Q) Which RP-HPLC retention times is reported for this substance? AGYLLGHIINLHIHILAHIL(Aib)HIHIIL-NH2 [Isopropyl-TH, TH analog with all histidines replaced by L-his(Isopropyl)]
(A) 19.041

Others:
(Q) Which RP-HPLC retention times is reported for this substance? AGYLLGHBINLHBHBLAHBL(Aib)HBHBIL-NH2 [Butyl-TH, TH analog with all histidines replaced by L-his(Butyl)]
(A) 20.561
